system: SNB-19 CNS; test: NCI-60 one-dose screen, 48 h (100 = growth as untreated, 0 = no growth, -100 = all killed); details: 10 µM unless noted
The panel holds about 83,000 compounds, 20% with a hit somewhere; the sample as a whole holds those more often.
VALUE TYPE: growth (%)
# output: bare number, implied unit %

Please review the entries below; each comes with its answer.
COMPOUND	ASSAY TARGET	VALUE TYPE	ASSAY VALUE
CN(C)CCOc1ccc(C(=O)C2[C@H](c3ccc(Cl)cc3)[C@@H](c3ccccc3)NC23C(=O)Nc2ccccc23)cc1 (some centres undefined)	SNB-19 CNS	growth	83.8
COc1ccc(NC(=O)[C@@H](N)Cc2ccccc2)cc1C(=O)Nc1cccc(C2CC(=O)c3c(cc(OC)c(OC)c3OC)O2)c1 (some centres undefined)	SNB-19 CNS	growth	79
O=C(Cn1nc(-c2ccccc2)ccc1=O)N/N=C/c1ccc(N2CCOCC2)cc1	SNB-19 CNS	growth	89.9
Cn1cc(-c2cc3nc(-c4c[nH]c5ccc(Br)cc45)cc(N)n3n2)c2ccccc21	SNB-19 CNS	growth	-68.1
Nc1nc(-c2ccccc2)c(N=Nc2ccc([N+](=O)[O-])cc2Cl)s1	SNB-19 CNS	growth	96.3
CSc1ccccc1NC(=O)c1ccc2nnn(/C(C#N)=C/c3ccccn3)c2c1	SNB-19 CNS	growth	0.0552

query: Report measured growth; entry is COc1c(F)ccc(C(=O)Nc2ccc3nc(NC(=O)C4CCCN(S(=O)(=O)c5ccc(Br)c(F)c5)C4)sc3c2)c1F (centres undefined)
result: 81.9

query: Identify the reported growth for the following entry. CSc1ccccc1NC(=O)c1ccc2nn(/C(C#N)=C/c3ccccn3)nc2c1
result: 12.3

query: Return growth (reported value) for this compound: O=C(COc1ccc(NC(=O)Nc2ccc(Cl)c(Cl)c2)cc1)N=Nc1c(O)[nH]c2ccccc12
result: -24.5

* * *

tested on: A498 renal; assay: NCI-60 one-dose screen, 48 h; conditions: 10 µM unless noted
Compounds without any hit were thinned out: in the full panel of roughly 83,000, 20% have a hit. Active and inactive are the calls of the source. The calls were made as follows: active = growth percent below 10; inactive = the rest.
Your reply should match one of these outcome classes. Y for active, N for inactive

query: Per the assay record, what outcome was assigned to CN1CCN(c2ccc3c(c2)nc(NNC(=O)c2cnccn2)c2cccn23)CC1 ?
result: Y

query: Outcome logged for COc1ccc(-c2ccc(SCC(=O)NCCc3ccc(S(N)(=O)=O)cc3)nn2)cc1 in this assay:
result: N

query: Called result for CC1(C)CC[C@]2(C(=O)O)CC[C@]3(C)C(=CCC4[C@@]5(C)C[C@@H](O)[C@@H]6OC(c7cccc(Br)c7)OC[C@@]6(C)C5CC[C@]43C)C2C1 (stereo not given in full)
result: N

query: What is the recorded call for this compound in the test? O=C(N/N=C/c1ccc(-c2ccc(O)cc2)o1)c1[nH]c2ccc(Br)cc2c1-c1ccccc1
result: N

query: Would you mind telling me which call this test gave CSc1ccc(NC(=O)c2ccc3nnn(/C(C#N)=C/c4ccccn4)c3c2)cc1 ?
result: N

* * *

Measured growth accompanies every entry in the list below.
system: ACHN renal; assay: NCI-60 one-dose screen, 48 h (100 = growth as untreated, 0 = no growth, -100 = all killed); details: 10 µM unless noted
The panel holds about 83,000 compounds, 20% with a hit somewhere; the sample as a whole holds those more often.
Numbers only here, please. The scale is %.

Known growth results, listed for orientation:
COMPOUND	ASSAY TARGET	growth (%)
N/C(=N\c1nc2ccccc2s1)NC(=O)Nc1c(Cl)cccc1Cl	ACHN renal	48.1
O=C(c1ccccc1)c1ccc2nc(-c3ccc(F)cc3)[nH]c2c1	ACHN renal	57.1
CCN(CC)C(=O)N/C(N)=N/c1nc2ccccc2s1	ACHN renal	50.7
CN(C)CCn1c2ccccc2c2nc3ccc([N+](=O)[O-])cc3nc21	ACHN renal	-40.8
CC(C)Sc1nc(NCCc2c[nH]c3ccccc23)c(C#N)c(-c2ccc(F)cc2)n1	ACHN renal	51.7
COc1ccc(C(SCCNCc2cc(N(C)C)ccn2)(c2ccccc2)c2ccccc2)cc1	ACHN renal	20.3
N=C1N=C(SCc2nc3ccccc3[nH]2)NC(=O)/C1=C/c1ccc(Cl)cc1	ACHN renal	99.6
C=C1CCC2C3(C)COC(c4ccccc4F)OC3CCC2(C)C1CC(O)C1=CCOC1=O (centres undefined)	ACHN renal	-23
C#CCOc1ccc(/C=N/Nc2nc(-c3ccc(F)cc3)cs2)cc1OC	ACHN renal	64.5
CCN(CC)c1ccnc(CNCCSC(c2ccccc2)(c2ccccc2)c2ccc(OC)cc2)c1	ACHN renal	12.2

Please examine the following record next.
query: Quote growth reported for COc1c(F)ccc(C(=O)Nc2ccc3nc(NC(=O)C4CCCN(S(=O)(=O)c5ccc(Br)s5)C4)sc3c2)c1F (centres undefined) please.
result: 77.2

* * *

growth by entry:
test system: DU-145 prostate; test: NCI-60 one-dose screen, 48 h (100 = growth as untreated, 0 = no growth, -100 = all killed); conditions: 10 µM unless noted
This is part of a sample that, as a whole, favours compounds with a hit. Of some 83,000 tested, about 20% had one in any assay.
Give your result in % as a bare value.

Recorded growth, per entry:
COMPOUND	ASSAY VALUE
COc1cc(C2CC(c3ccc(S(=O)(=O)NCCNc4nc(Nc5ccc(F)cc5)nc(N(C)C)n4)cc3)=Nc3c(N)nc(N)nc3N2)cc(OC)c1OC (centres undefined)	103
COc1ccc(-c2nc3cc(C)ccc3n2CC(=O)N=Nc2c(O)[nH]c3ccc(Cl)cc23)cc1	15

query: State its growth for this compound: Cn1cc(-c2nc(N)nnc2-c2c[nH]c3ccc(Br)cc23)c2cc(Br)cnc21
result: 14.2

query: Supply reported growth belonging to this compound: COc1cc2c(c(OC)c1OC)C(=O)CC(c1cccc(NC(=O)c3cc([N+](=O)[O-])ccc3Cl)c1)O2 (centres undefined)
result: 5.58

* * *

test system: NCI-H322M lung; assay: NCI-60 one-dose screen, 48 h (100 = growth as untreated, 0 = no growth, -100 = all killed); conditions: 10 µM unless noted
About 83,000 compounds went through this panel and 20% of them were active in at least one assay; those are over-represented in the sample as a whole.
VALUE TYPE: growth (%)
I only need the number, in %, no unit after it.

Some solved entries appear below for comparison.
COMPOUND	ASSAY TARGET	growth [%]
CN(C)CCOc1ccc(C(=O)C2[C@H](c3ccc(Cl)cc3)[C@@H](c3ccccc3)NC23C(=O)Nc2ccc(Br)cc23)cc1 (some centres undefined)	NCI-H322M lung	53.7
C#CCOc1cc(N(CC)CC)ccc1C(C(=O)NC(C)(C)C)N(C(=O)C1CCc2cc(F)ccc2O1)c1ccc(F)c(Cl)c1 (centres undefined)	NCI-H322M lung	89.5
CCCCCCCCc1ccc(C(=O)Nc2ccc(C)cc2C(=O)O)cc1C	NCI-H322M lung	99.3

Consider the additional compound presented here.
query: Supply measured growth of CCOC(=O)COc1c(OC)c(OC)cc2oc(-c3cccc(C(=O)Nc4ccc(Cl)cc4)c3)cc(=O)c12 in your reply.
result: 108

* * *

test system: OVCAR-4 ovarian; assay: NCI-60 one-dose screen, 48 h; conditions: 10 µM unless noted
The panel holds about 83,000 compounds, 20% with a hit somewhere; the sample as a whole holds those more often. Calls of active or inactive are those of the source. The calls were made as follows: active = growth percent below 10; inactive = the rest.
Pick one and only one: active, inactive

Recorded results for 5 molecules are shown here.
MOLECULE	GROUP
Cc1cccc(NC(=O)CN2CCN(c3ncnc4c3cnn4-c3ccccc3)CC2)c1	inactive
Cc1ccc(C(SCCNCc2cc(N(C)C)ccn2)(c2ccccc2)c2ccccc2)cc1	inactive
COc1ccc(C(=O)/C=C/c2cccc(Cl)c2)cc1S(N)(=O)=O	inactive
Cc1sc2c(c1C)C(c1ccc(Cl)cc1)=N[C@@H](CC(=O)NCCCCCNC(=O)COc1ccc(C3CCC(=O)NC3=O)cc1)c1nnc(C)n1-2 (some centres undefined)	inactive
Nc1nc(-c2ccccc2)c(N=Nc2ccc(Cl)cc2[N+](=O)[O-])s1	inactive

query: Record request — test call for Nc1nc(C(F)(F)F)cs1
result: inactive

query: Assay result, entry CNS(=O)(=O)c1ccc(Nc2ccc(C(F)(F)F)cc2)c(-c2cn(C)cn2)c1 — outcome?
result: inactive

query: What call does the record list for CN(C)c1nc(NCCNS(=O)(=O)c2ccc(C3=Nc4c(N)nc(N)nc4NC(c4ccc(F)cc4)C3)cc2)nc(Nc2ccc(F)cc2)n1 (centres undefined) ?
result: inactive

query: Per the records of this test, what outcome belongs to O=C(NN1C(=O)/C(=C/C=C/c2ccc([N+](=O)[O-])o2)SC1=S)c1ccccc1O ?
result: active

* * *

tested on: SF-268 CNS; experiment: NCI-60 one-dose screen, 48 h (100 = growth as untreated, 0 = no growth, -100 = all killed); settings: 10 µM unless noted
Compounds without any hit were thinned out: in the full panel of roughly 83,000, 20% have a hit.
Cut-off 60% on growth: below means true (1), at or above means false (0).

query: Below 60% on growth? Entry C=CC(=O)Nc1ccc(C)c(Oc2ccc(Cl)cc2)c1
result: true (1)

query: Quick check: growth of CCOC(=O)C1=C(N)N(c2ccccc2)C2=C(C(=O)CC(C)(C)C2)C1c1ccc([N+](=O)[O-])cc1 (centres undefined) under 60%?
result: false (0)

query: # TODO verify growth < 60% strictly for this compound: O=C(N=Nc1c(O)[nH]c2ccc(Cl)cc12)c1ccc2nc(-c3ccccc3)[nH]c2c1
result: true (1)

query: Problem: For the compound Clc1cccc(N/N=C/c2c[nH]c3ccc(Br)cc23)n1 , is growth under 60%?
result: true (1)

query: Please check: growth for O=C(CCN1C(=O)/C(=C/c2ccc(F)cc2)SC1=S)N1CCOCC1 , strictly under 60% or not?
result: false (0)

query: Could you please tell me whether growth recorded for COc1cc(CNC(=O)/C=C/c2ccc3c(c2)OCO3)ccc1OCc1cn(-c2cccc(C(F)(F)F)c2)nn1 is less than 60%?
result: true (1)

query: A record lists Cc1ccc(-c2nc(C#N)c(S(=O)(=O)N3CCN(S(=O)(=O)c4ccc(Cl)cc4)CC3)o2)cc1 . Is its growth below 60%?
result: false (0)

query: Consider C#CCOc1ccc(/C=N/Nc2nc(-c3cc4cc(OC)ccc4oc3=O)cs2)cc1OC . Does its growth lie strictly below 60%?
result: true (1)

query: Record CN1CCN(c2ccc3c(c2)nc(NNC(=O)c2ncccn2)c2cccn23)CC1 : is its growth strictly below 60%?
result: true (1)
